Assay: Plasmodium falciparum growth inhibition, primary screen, strain 3D7, DAPI fluorescence, 100 nL (AID 1184);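 also: parasites grown inside human red blood cells in medium with human serum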
Settings: P. falciparum 3D7 growth, 3 d, higher = more signal
Outcome label depends on z-score relative to 0.07: at/above gives Satisfied, below gives Not satisfied.

Some entries whose results are on file:
COMPOUND	LABEL
C=C(COC)/C(=C/C[C@H](OC(=O)c1ccncc1)c1cccc(OCCO)c1)c1cnc2ccccc2c1	Not satisfied
CN(C)C(=O)[C@]1(Cc2ccccc2)N=C(c2ccc(OCCCO)cc2)O[C@@H]1c1ccccc1	Not satisfied
[N-]=[N+]=NCc1ccccc1C[C@@]1(C(=O)O)N=C(c2ccc(OCCCO)cc2)O[C@@H]1c1ccccc1CN=[N+]=[N-]	Satisfied
Cc1ccc(S[C@]2(C(=O)NC3CC3)CC(=O)N(Cc3cc(C(F)(F)F)cc(C(F)(F)F)c3)[C@@H]2c2ccc(CO)cc2I)cc1	Satisfied
[N-]=[N+]=Nc1ccccc1[C@@H]1OC(c2ccc(OCCCO)cc2)=N[C@]1(Cc1ccccc1)C(N)=O	Not satisfied
C=CCC(OC(C)=O)[C@@H]1[C@@H](N(Cc2ccc(-c3ccccc3)cc2)C(=O)c2ccc(-c3ccccc3)cc2)c2cc(OCCCO)ccc2N1C(=O)c1ccc2ccccc2n1 (some centres undefined)	Not satisfied

Attention now shifts to the item below.
Request: Entry `Cc1ccc(F)cc1S(=O)(=O)N[C@@H]1CCN(Cc2ccc3[nH]ccc3c2)C1` : is its z-score no less than 0.07?
Response: Not satisfied

// provenance: PubChem BioAssay
